Target: FACI53 (Bos taurus, UniProt P07107, A54C)
Construct: badan (6-bromoacetyl-2-dimethylaminonaphthalene) fluorophore on the introduced Cys-53; made in house; host or cells: E. coli BL21(DE3)pLysS, pET3a vector
Sequence (P07107 2-87 A54C): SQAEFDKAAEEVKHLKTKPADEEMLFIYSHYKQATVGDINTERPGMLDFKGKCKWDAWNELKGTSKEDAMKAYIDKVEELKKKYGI
Test: Fluorescence emission change of FACI-53 on titration with CoA and acyl-CoA esters
Assay type: binding, bovine
ENDPOINT_LABEL: Magnitude of emission of FACI-53, fold increase (fold)
Numbers only, in fold.

# annotated cases, reported Magnitude of emission of FACI-53, fold increase shown
1) CCCCCCCCCCCCCCCC(=O)SCCNC(=O)CCNC(=O)[C@H](O)C(C)(C)COP(=O)(O)OP(=O)(O)OC[C@H]1O[C@@H](n2cnc3c(N)ncnc32)[C@H](O)[C@@H]1OP(=O)(O)O [C16:0-CoA, palmitoyl-CoA] : 1.3
2) CC(C)(COP(=O)(O)OP(=O)(O)OC[C@H]1O[C@@H](n2cnc3c(N)ncnc32)[C@H](O)[C@@H]1OP(=O)(O)O)[C@@H](O)C(=O)NCCC(=O)NCCS [CoASH, Coenzyme A] : 1.1
3) CCCCCCCCCCCC(=O)SCCNC(=O)CCNC(=O)[C@H](O)C(C)(C)COP(=O)(O)OP(=O)(O)OC[C@H]1O[C@@H](n2cnc3c(N)ncnc32)[C@H](O)[C@@H]1OP(=O)(O)O [C12:0-CoA, dodecanoyl-CoA] : 2.7
4) CCCCCCCCCCCCCCCCCCCC(=O)SCCNC(=O)CCNC(=O)[C@H](O)C(C)(C)COP(=O)(O)OP(=O)(O)OC[C@H]1O[C@@H](n2cnc3c(N)ncnc32)[C@H](O)[C@@H]1OP(=O)(O)O [C20:0-CoA] : 0.8

Hey, can you go through the list below and give me Magnitude of emission of FACI-53, fold increase for every item?
1. CCCCCCCC(=O)SCCNC(=O)CCNC(=O)[C@H](O)C(C)(C)COP(=O)(O)OP(=O)(O)OC[C@H]1O[C@@H](n2cnc3c(N)ncnc32)[C@H](O)[C@@H]1OP(=O)(O)O [C8:0-CoA]
2. CCCC(=O)SCCNC(=O)CCNC(=O)[C@H](O)C(C)(C)COP(=O)(O)OP(=O)(O)OC[C@H]1O[C@@H](n2cnc3c(N)ncnc32)[C@H](O)[C@@H]1OP(=O)(O)O [C4:0-CoA]

Completion:
1. 2.9
2. 1.8

Where do the numbers come from? From patent US20020142347A1.
